Taken from ChEMBL document CHEMBL1138584.

# tested on: hERG (KCNH2) (Homo sapiens, UniProt Q12809)
# Sequence (Q12809 whole entry): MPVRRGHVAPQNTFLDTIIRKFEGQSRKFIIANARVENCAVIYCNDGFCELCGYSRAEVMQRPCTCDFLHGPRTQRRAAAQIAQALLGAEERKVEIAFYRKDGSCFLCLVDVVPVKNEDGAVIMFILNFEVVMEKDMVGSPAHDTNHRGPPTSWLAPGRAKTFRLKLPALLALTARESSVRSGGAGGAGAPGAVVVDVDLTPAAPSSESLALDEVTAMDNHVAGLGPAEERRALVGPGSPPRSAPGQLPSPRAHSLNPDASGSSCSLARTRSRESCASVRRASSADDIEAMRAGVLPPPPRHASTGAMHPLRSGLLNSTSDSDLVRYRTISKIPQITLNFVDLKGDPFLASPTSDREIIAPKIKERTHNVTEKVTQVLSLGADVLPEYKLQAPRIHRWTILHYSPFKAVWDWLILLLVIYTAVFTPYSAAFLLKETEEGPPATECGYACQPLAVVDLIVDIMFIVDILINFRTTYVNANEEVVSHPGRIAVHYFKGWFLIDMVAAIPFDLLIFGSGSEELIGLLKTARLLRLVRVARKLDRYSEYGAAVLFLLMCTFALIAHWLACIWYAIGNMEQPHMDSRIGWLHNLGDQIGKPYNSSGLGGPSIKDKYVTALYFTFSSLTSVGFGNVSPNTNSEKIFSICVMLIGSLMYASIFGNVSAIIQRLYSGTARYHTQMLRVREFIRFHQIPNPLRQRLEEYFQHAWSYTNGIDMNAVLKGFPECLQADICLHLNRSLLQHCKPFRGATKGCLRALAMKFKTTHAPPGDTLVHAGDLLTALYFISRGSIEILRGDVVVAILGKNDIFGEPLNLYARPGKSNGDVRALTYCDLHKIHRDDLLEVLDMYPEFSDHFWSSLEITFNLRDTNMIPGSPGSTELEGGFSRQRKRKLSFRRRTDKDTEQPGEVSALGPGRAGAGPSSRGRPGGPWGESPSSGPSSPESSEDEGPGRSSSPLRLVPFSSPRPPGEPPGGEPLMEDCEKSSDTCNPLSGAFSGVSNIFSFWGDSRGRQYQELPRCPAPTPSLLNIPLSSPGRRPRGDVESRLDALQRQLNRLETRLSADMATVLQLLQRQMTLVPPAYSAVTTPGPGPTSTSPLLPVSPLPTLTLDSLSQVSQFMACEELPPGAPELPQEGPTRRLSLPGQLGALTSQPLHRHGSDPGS
# test protocol: Displacement of [3H]dofetilide from human ERG expressed in HEK293 cells at 10 uM
# assay conditions: hek293
Field: inhibition at 10 µM. Provide a value for each of the compounds that follow.
Numbers only, in %.

These recorded examples may help you get a feel for the data.
INSERT INTO results (compound_structure, uom, numeric_readout) VALUES
  ('O=C([C@@H]1C[C@H](N2CCN(c3ncccn3)CC2)CN1)N1C[C@@H](F)[C@H](F)C1', '%', -1.6),
  ('O=C([C@@H]1C[C@H](N2CCN(c3ncccn3)CC2)CN1)N1C[C@@H](F)[C@@H](F)C1', '%', 7.2);

# evaluate next
GET /values?readout=inhibition at 10 µM&item= O=C([C@@H]1C[C@H](N2CCN(c3ncccn3)CC2)CN1)N1CCC(F)(F)C1
14.9
